- assay_details: soluble on expression in E. coli; label from the status in PepcDB or PDB records
assay_endpoint: soluble on expression in E. coli

Known soluble on expression in E. coli results, listed for orientation:
MNRSTISPVEARQQFRAGLIQPTSGWSAGFAQANLISMPQDLAYDFLLFAQRNPKPCPILEVLNAGETFGGIFGSNATEADIRTDAPQYRIYAHGELIDSPASAVDYWRDDLVSFIIGCSFTFEHPMVQAGVPVRHLEAGRNVPMYETSLACRPAGSLSGNLVVSLRMIPASQVADAVRITSRYPAVHGAPVHIGDPSLIGIDDINNPDFGDAPLSEPSDVPVFWACGVTPQAMVMSSKPPLAITHAPGHMLITDAPDLGFQVPLEHHHHHH	not soluble
MSLKYGIIGAGAMGYRYGVMLQENAGVDVDFIDTWGPNVAKVREQGGVDVARDHQNHHVVPINIYYPEEYQGHPDVWIVFKKQMQLADELKRDASLFHEDQYVFAAMNGMGHFEKIAQYFPENHIIGGTAMIATVLNGPGTVDFMGPKGSEAMHMSKYAGHIDTTTKQVMADFKAADLNPIWSDNFMGMCMSKVVFNAVTNSLCTMFEIQMGQFIEYPGVKDMATQMFNEAYDACERAGIKLIETRQEEIDSVETVSRAYKYHYPSMYQDFSKGRPTEVDYINGYIAKIGREHDYVCRVHEFVTHEVHLAEMMRQYRHPEIPVAEKEGHHHHHH	not soluble
NATNRRDTVLAAMVDAGKLTKSQAKEAASIGMKNRLADTYAGKINDYRYPSYFDAVVNEAIDTYGISEKDIVNNGY	not soluble
MGSDKIHHHHHHMSAFNAVQVGRRVLAVEADALRVLADSLGEAFANAVETIFNAKGRVVCTGMGKSGHVARKIAATLASTGTQAMFVHPAEASHGDLGMIGPDDVVLALSKSGAGRELADTLAYAKRFSIPLIAMTAVADSPLGQAGDILLLLPDAPEGTAEVNAPTTSTTLQIALGDAIAVALLERRGFTASDFRVFHPGGKLGAMLRTVGDLMHGADELPLVAADAAMPDALLVMSEKRFGAVGVVDNAGHLAGLITDGDLRRHMDGLLTHTAGEVMTHAPLTIGPGALAAEALKVMNERRITVLFVVERERPVGILHVHDLLRAGVI	not soluble

// field: soluble on expression in E. coli; key: `MYQQSSFKENLIHWFDENQREMPWRQTTNPYYIWLSEVMLQQTQVKTVIDYYHRFVERFPTVEVLSQASEDEVLKYWEGLGYYSRARNFHTAIKEVHDKYEGLVPKDPDQFKALKGVGPYTQAAVMSIAYNVPLATVDGNVFRVWSRLNDDYRDIKLQSTRKSYEQELLPYVTTEAGTFNQAMMELGALICTPKNPLCLFCPVQENCEAFDKGTFEKLPVKSKNVSKKVIEQSVFLIRNNQGQYLLQKRSEKLLHGMWQFPMFESEHARRKMTEKIGHDIQPVETPIFELKHQFTHLTWKIKVYAVSGAINIETLPDDMIWFDLSDRDQYTFPVPMSKIYQFING` ; value = not soluble
